- system tested: Opioid receptors; delta & kappa (Homo sapiens) (UniProt P41145+P41143)
- Sequence (P41143 whole entry, looked up): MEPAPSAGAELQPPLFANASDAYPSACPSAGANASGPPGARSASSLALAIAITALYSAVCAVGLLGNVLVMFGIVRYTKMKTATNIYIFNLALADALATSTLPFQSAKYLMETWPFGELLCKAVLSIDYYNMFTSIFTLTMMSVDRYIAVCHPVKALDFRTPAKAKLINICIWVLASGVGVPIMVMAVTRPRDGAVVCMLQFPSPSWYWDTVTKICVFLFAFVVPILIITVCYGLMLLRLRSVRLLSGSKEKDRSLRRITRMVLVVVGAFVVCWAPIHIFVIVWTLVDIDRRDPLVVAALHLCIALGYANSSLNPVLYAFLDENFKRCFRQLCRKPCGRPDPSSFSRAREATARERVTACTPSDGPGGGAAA
- Sequence (P41145 whole entry, looked up): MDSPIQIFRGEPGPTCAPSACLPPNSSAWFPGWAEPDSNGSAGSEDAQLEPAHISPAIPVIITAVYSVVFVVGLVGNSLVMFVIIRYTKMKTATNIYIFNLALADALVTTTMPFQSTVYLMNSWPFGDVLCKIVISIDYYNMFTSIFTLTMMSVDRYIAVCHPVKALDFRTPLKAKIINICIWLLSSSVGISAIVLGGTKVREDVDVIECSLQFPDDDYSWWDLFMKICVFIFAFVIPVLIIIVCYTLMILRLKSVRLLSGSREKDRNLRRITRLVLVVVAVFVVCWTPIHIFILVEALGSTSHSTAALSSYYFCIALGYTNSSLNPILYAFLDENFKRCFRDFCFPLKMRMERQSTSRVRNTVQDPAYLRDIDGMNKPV
- assay comment: Selectivity ratio, ratio of binding affinity of delta to kappa opioid receptor
- Assay type: protein assay
Quick rule for you: Ratio under 20 gets Criterion met, anything else gets Criterion not met.

For orientation, consider the following solved cases.
Data request: Check if Ratio falls below 20 for CN1CC[C@]23c4c5ccc(O)c4O[C@H]2c2[nH]c4ccc(NC(=N)N)cc4c2C[C@@]3(O)C1C5 .
Data returned: Criterion not met

Data request: # strict comparison: is reported Ratio < 20? input = CN(C)Cc1ccc2[nH]c3c(c2c1)C[C@@]1(O)C2Cc4ccc(O)c5c4[C@@]1(CCN2CC1CC1)[C@H]3O5
Data returned: Criterion met

Continuing:
Data request: Identify whether the molecule N=C(N)/N=C(\N)Nc1ccc2[nH]c3c(c2c1)C[C@@]1(O)C2Cc4ccc(O)c5c4[C@@]1(CCN2CC1CC1)[C@H]3O5 records Ratio below 20.
Data returned: Criterion not met

Data request: Consider N#CN/C(N)=N/c1ccc2[nH]c3c(c2c1)C[C@@]1(O)C2Cc4ccc(O)c5c4[C@@]1(CCN2CC1CC1)[C@H]3O5 . Does its Ratio lie strictly below 20?
Data returned: Criterion met
